Biological target: binding partner of C5A (XPA23)
Experiment: Biacore
Assay Endpoint: fold affinity vs original

Some binders with recorded fold affinity vs original:
C5A (XPA23) VH M57R (antibody, V domains shown) VH: EVQLLESGGGLVQPGGSLRLSCAASGFTFSKYFMFWVRQAPGKGLEWVSVISPSGGRTRYADSVKGRFTISRDNSKNTLYLQMNSLRAEDTAVYYCARVGYGGNSDYWGQGTLVTVSS VL: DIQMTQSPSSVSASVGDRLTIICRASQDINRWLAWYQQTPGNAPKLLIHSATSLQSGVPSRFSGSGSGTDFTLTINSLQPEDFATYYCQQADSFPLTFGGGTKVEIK; 0.06 fold
C5A (XPA23) VH T58H (antibody, V domains shown) VH: EVQLLESGGGLVQPGGSLRLSCAASGFTFSKYFMFWVRQAPGKGLEWVSVISPSGGMHRYADSVKGRFTISRDNSKNTLYLQMNSLRAEDTAVYYCARVGYGGNSDYWGQGTLVTVSS VL: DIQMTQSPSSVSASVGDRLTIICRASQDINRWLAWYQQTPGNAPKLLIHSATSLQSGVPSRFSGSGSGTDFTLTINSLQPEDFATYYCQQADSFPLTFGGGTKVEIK; 0.98 fold

Now for another entry.
Data request: # query: fold affinity vs original of entry C5A (XPA23) VH I51F (antibody, V domains shown) VH: EVQLLESGGGLVQPGGSLRLSCAASGFTFSKYFMFWVRQAPGKGLEWVSVFSPSGGMTRYADSVKGRFTISRDNSKNTLYLQMNSLRAEDTAVYYCARVGYGGNSDYWGQGTLVTVSS VL: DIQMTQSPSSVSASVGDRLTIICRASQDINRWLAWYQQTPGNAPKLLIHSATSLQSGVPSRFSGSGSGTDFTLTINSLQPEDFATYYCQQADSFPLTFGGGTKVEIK
Data returned: 0.9 fold
